# Test system: human blood-plaques
# test description: Blood-plaque aggregation inhibition in B.P.R.P. (D.P.A., adrenaline, collagene)
# condition context: adrenaline; X 2.5 × 10^-5 g/ml vs Dipyridamole 5 × 10^-4 g/ml; head is drawing 15
reported metric: ratio of activities a(X)/a(R), Adrenaline

>>> df
             smiles_representation  test_result
0     O=C(CCN1CCOCC1)c1cc2ccccc2s1  4.6 × 10^-1
1    O=C(CCN1CCCCCC1)c1cc2ccccc2s1    6 × 10^-2
2  C=CCN(CC=C)CCC(=O)c1cc2ccccc2s1    7 × 10^-1
